assay method text: Plasma protein binding in rat assessed as unbound fraction by rapid equilibrium dialysis
Assay type: ADME, cell-free
reported endpoint: fraction unbound

[ask] Let me know recorded fraction unbound for COc1ccc(-c2cc(C(=O)N[C@H]3CCCN(C)C3)nn2C)c(Cl)c1 , thanks.
[reply] 0.202

* * *

assay method text: Half life in Sprague-Dawley rat at 3 mg/kg, po by LC-MS/MS analysis
Type: ADME, organism-based
condition summary: in vivo
reported endpoint: half-life (h)
Hi! Could you send only the number? It should be in h, unit omitted.

[ask] Let me know recorded half-life for COc1ccc(-c2cc(C(=O)N[C@H]3CCCN(C)C3)nn2C)c(Cl)c1 , thanks.
[reply] 7.8

* * *

assay method text: Clearance in Sprague-Dawley rat at 0.5 mg/kg, iv by LC-MS/MS analysis
Type: ADME, organism-based
condition summary: in vivo
reported endpoint: clearance (mL/min/kg)
Hi! Could you send only the number? It should be in mL/min/kg, unit omitted.

[ask] Let me know recorded clearance for COc1ccc(-c2cc(C(=O)N[C@H]3CCCN(C)C3)nn2C)c(Cl)c1 , thanks.
[reply] 38.2

* * *

assay method text: Metabolic stability in human liver microsome assessed as clearance at 10 uM incubated upto 2 hrs by LC-MS/MS analysis
Assay type: ADME
condition summary: liver microsomes, read-out: CLH
Listed below: microsomal CLint at 10 µM values for each entry.
Hi! Could you send only the number? It should be in µL/min/mg, unit omitted.

Known microsomal CLint at 10 µM results, listed for orientation:
COc1ccc(-c2cc(C(=O)N[C@@H]3CN(C)CCC3(F)F)nn2C)c(Cl)c1: 61.3
[2H]C([2H])([2H])Oc1ccc(-c2cc(C(=O)N[C@H]3CCCN(C([2H])([2H])[2H])C3)nn2C([2H])([2H])[2H])c(Cl)c1: 0.7

Now let's try a different one.
[ask] Let me know recorded microsomal CLint at 10 µM for COc1ccc(-c2cc(C(=O)N[C@H]3CN(C)CCC3(F)F)nn2C)c(Cl)c1 , thanks.
[reply] 75.5

* * *

assay method text: Metabolic stability in human liver microsome assessed as intrinsic clearance preincubated for 60 mins followed by NADPH addition and measured after 60 mins by LC-MS/MS analysis
Format: ADME
condition summary: liver microsomes, time 120 min, read-out: CLH
reported endpoint: microsomal CLint (µL/min/mg)
Hi! Could you send only the number? It should be in µL/min/mg, unit omitted.

[ask] Let me know recorded microsomal CLint for COc1ccc(-c2cc(C(=O)N[C@H]3CCCN(C)C3)nn2C)c(Cl)c1 , thanks.
[reply] 2.8

* * *

assay method text: Metabolic stability in mouse hepatocytes assessed as intrinsic clearance measured per 10^6 cells
Assay type: ADME, cell-based, Hepatocyte
reported endpoint: CLint (µL/min/1e6 cells)
Hi! Could you send only the number? It should be in µL/min/1e6 cells, unit omitted.

[ask] Let me know recorded CLint for COc1ccc(-c2cc(C(=O)N[C@H]3CCCN(C)C3)nn2C)c(Cl)c1 , thanks.
[reply] 25.1

* * *

assay method text: Ratio of drug concentration in Sprague-Dawley rat brain to plasma assessed as unbound fraction at 10 mg/kg, po measured after 6 hrs by LC-MS/MS analysis
Format: ADME, organism-based
condition summary: read-out: K(p,uu,brain)
reported endpoint: Kp uu at 6 h
The answer should be written as a number, with no unit following it.

[ask] Let me know recorded Kp uu at 6 h for COc1ccc(-c2cc(C(=O)N[C@H]3CCCN(C)C3)nn2C)c(Cl)c1 , thanks.
[reply] 1.4

The values you see were collected from ChEMBL document CHEMBL5365451.
